Please provide measured Residual activity in % (residual activity of the NCBE) for the entries that follow.
system: Na+-dependent Cl−/HCO3− exchanger (NCBE); test: Inhibition of the Na+-dependent Cl−/HCO3− exchanger (NCBE) in human endothelial cells (pHi recovery, BCECF fluorescence, FLIPR); assay type: cell-based; settings: inhibitor concentration of 10 μM; human endothelial cells (ECV-304); relative to 100% and 0% pHi recovery controls, 50 μM HOE 642 present
Entry rule: numbers only, all in %.

Look up Residual activity in % (residual activity of the NCBE): CCCCc1nc(SC)c(C(=O)OCC)n1Cc1ccc(-c2cccc(S(=O)(=O)NC#N)c2)cc1 39.6

Look at this compound and give its reported Residual activity in % (residual activity of the NCBE). COc1nc(-c2ccccc2)n(Cc2ccc(-c3ccccc3S(=O)(=O)NC#N)cc2Cl)c1C=O 5.5

Fill in: Residual activity in % (residual activity of the NCBE) of CCCCc1nc(SC)c(C(=O)OCC)n1Cc1cccc(-c2ccc(S(=O)(=O)NC#N)cc2)c1 is ___ 58.6

I would be grateful if you could share the reported Residual activity in % (residual activity of the NCBE) for N#CNS(=O)(=O)c1ccccc1-c1ccc(Cn2c(-c3ccccc3)nc(Cl)c2C=O)c(Cl)c1 . 7.8

Return reported Residual activity in % (residual activity of the NCBE); argument: CCCCc1nc(SC)c(C(=O)OC(C)C)n1Cc1ccc(-c2ccccc2S(=O)(=O)NC#N)cc1 19.5

// lookup Residual activity in % (residual activity of the NCBE) for CCOC(=O)c1c(SC)nc(C(C)C)n1Cc1ccc(-c2ccccc2S(=O)(=O)NC#N)cc1 21.5

State the recorded Residual activity in % (residual activity of the NCBE) for this entry: N#CNS(=O)(=O)c1ccccc1-c1ccc(Cn2cc(Cl)nc2-c2ccccc2)cc1 30.5

Quick one: Residual activity in % (residual activity of the NCBE) for CCCCc1nc(SC)c(C(=O)OCC)n1Cc1ccc(-c2ccc(S(=O)(=O)NC#N)cc2)cc1 ? 74.1

Consider the compound CCCCc1ncc(C(=O)OCC)n1Cc1ccc(-c2ccccc2S(=O)(=O)NC#N)cc1 and give its measured Residual activity in % (residual activity of the NCBE). 89.5

// returns reported Residual activity in % (residual activity of the NCBE) for input CCCCc1nc(SC)c(C(=O)OCC)n1Cc1cccc(-c2cccc(S(=O)(=O)NC#N)c2)c1 43.2

Suppose we examine the compound COc1ccc(-c2nc(Cl)c(C=O)n2Cc2ccc(-c3ccccc3S(=O)(=O)NC#N)cc2)cc1 ; what Residual activity in % (residual activity of the NCBE) value has been reported? 16.8

Entry under review: N#CNS(=O)(=O)c1ccccc1-c1ccc(Cn2c(-c3ccccc3)nc(Cl)c2C=O)c(F)c1 . Reported Residual activity in % (residual activity of the NCBE)? 7.6

Given the entry CCOC(=O)c1c(SC)nc(C2CC2)n1Cc1ccc(-c2ccccc2S(=O)(=O)NC#N)cc1 , report its measured Residual activity in % (residual activity of the NCBE). 21.6

Value lookup for Residual activity in % (residual activity of the NCBE); key = CCOC(=O)c1c(SC)nc(C)n1Cc1ccc(-c2ccccc2S(=O)(=O)NC#N)cc1 45.8

What value of Residual activity in % (residual activity of the NCBE) has been recorded for this entry: N#CNS(=O)(=O)c1ccccc1-c1ccc(Cn2c(-c3ccccc3)nc(-c3ccccc3)c2-c2ccccc2)cc1 36.5

Endpoint output: Residual activity in % (residual activity of the NCBE) of CCCCc1nc(Cl)c(C=O)n1Cc1ccc(-c2ccccc2S(=O)(=O)NC#N)cc1 . Value? 55.7

The measurements presented in this section are drawn from patent US6335451B1.
